Reference source: patent US20260274955A1

Assayed System: T1, anti-CD28 Fab (SEQ ID NOs: 202, 203)
T1 construct: biotinylated and captured on neutravidin coated plates in the phage ELISA
T1 sequence (VH, as listed by the source, chain 1 of 2): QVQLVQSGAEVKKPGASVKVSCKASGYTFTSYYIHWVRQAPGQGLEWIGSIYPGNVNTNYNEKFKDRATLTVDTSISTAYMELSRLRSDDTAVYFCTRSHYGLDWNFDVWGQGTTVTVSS
T1 sequence (VL, as listed by the source, chain 2 of 2): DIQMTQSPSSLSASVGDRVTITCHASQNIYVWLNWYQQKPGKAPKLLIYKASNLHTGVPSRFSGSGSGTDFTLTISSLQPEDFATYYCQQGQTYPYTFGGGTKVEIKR
Method Notes: phage ELISA on captured Fab;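 note: ELISA with clonal phage supernatants added to wells preincubated with CD28 antigen or with blocking buffer only, bound phage detected by HRP-conjugated anti-M13 antibody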
Entries annotated with measured Anti-CD28 Fab (SEQ ID NOs: 202, 203) signal
A bare number is all that is needed in reply.

1. YCDGHSAEYLLKCL (on phage, pIII fusion) [Phage-478]; 1.65
2. YCDGHLPQYLQKCT (on phage, pIII fusion) [Phage-525]; 1.58
3. YCDGHSSLYMHKCL (on phage, pIII fusion) [Phage-454]; 1.67
4. YCDGHAWQYMWKCL (on phage, pIII fusion) [Phage-554]; 1.53
5. YCAGHSPQYMEKCL (on phage, pIII fusion) [Phage-506]; 1.61

Exam item: Can you share its Anti-CD28 Fab (SEQ ID NOs: 202, 203) signal? I mean this binder: YCAGHTVENMAKCL (on phage, pIII fusion) [Phage-575]
Marked response: 1.48

Exam item: Can you share its Anti-CD28 Fab (SEQ ID NOs: 202, 203) signal? I mean this binder: YCDGHRLEYLEKCL (on phage, pIII fusion) [Phage-516]
Marked response: 1.6

Exam item: Can you share its Anti-CD28 Fab (SEQ ID NOs: 202, 203) signal? I mean this binder: YCDGHLAIYMWKCL (on phage, pIII fusion) [Phage-587]
Marked response: 1.45

Exam item: Can you share its Anti-CD28 Fab (SEQ ID NOs: 202, 203) signal? I mean this binder: YCDGHDVEYMAKCL (on phage, pIII fusion) [Phage-470]
Marked response: 1.66

Exam item: Can you share its Anti-CD28 Fab (SEQ ID NOs: 202, 203) signal? I mean this binder: YCDGHDVEYMSKCL (on phage, pIII fusion) [Phage-486]
Marked response: 1.64

Exam item: Can you share its Anti-CD28 Fab (SEQ ID NOs: 202, 203) signal? I mean this binder: YCEGHAPQYMTKCL (on phage, pIII fusion) [Phage-461]
Marked response: 1.67

Exam item: Can you share its Anti-CD28 Fab (SEQ ID NOs: 202, 203) signal? I mean this binder: YCDGHLPEYMNQCL (on phage, pIII fusion) [Phage-597]
Marked response: 1.44

Exam item: Can you share its Anti-CD28 Fab (SEQ ID NOs: 202, 203) signal? I mean this binder: YCDGHSEQYIAKCL (on phage, pIII fusion) [Phage-572]
Marked response: 1.49
